Hello, the source for this data is patent US20260152527A1, in case you need it.

- assay.details: In vivo topical administration pharmacokinetics of K173, rabbit (aqueous humor, cornea)
- conditions: aqueous humor, topical or ocular, 5 mg/ml, Group 2 (4 doses), topical 5 mg/ml, 8 hr post-last dose, OD, individual animals, read-out: K173 Concentrations (ng/mL) in Rabbit Aqueous Humor OD Sample
Positions of bridges follow the written chain, without caps; N, C: chain ends. Non-standard residues stand in square brackets, D forms with d. Residues, ends and D or L forms follow the SMILES beside them. Triazole bridges read from a SMILES are 1,4-linked. *: point of attachment. Benzoyl(3,5-(OH)2) = O=C(c1cc(O)cc(O)c1)*; Lys(N3) = [N-]=[N+]=NCCCC[C@H](N)C(=O)O; dPhe(4-F) = N[C@H](Cc1ccc(F)cc1)C(=O)O; Nle = CCCC[C@H](N)C(=O)O; Pra = C#CC[C@H](N)C(=O)O
endpoint: level at 8 h

q: Write down level at 8 h measured for item CCCC[C@H](NC(=O)c1cc(O)cc(O)c1)C(=O)N[C@H]1CCCCn2cc(nn2)C[C@@H](C(N)=O)NC(=O)[C@H](Cc2c[nH]c3ccccc23)NC(=O)[C@H](CCCNC(=N)N)NC(=O)[C@@H](Cc2ccc(F)cc2)NC(=O)[C@H](Cc2c[nH]cn2)NC1=O [KR-072] ({Benzoyl(3,5-(OH)2)}-[Nle][Lys(N3)]H[dPhe(4-F)]RW[Pra]-NH2; triazole 2-7)
a: 11.3 ng/mL

====

- assay.details: In vivo topical administration pharmacokinetics of K173, rabbit (aqueous humor, cornea)
- conditions: aqueous humor, topical or ocular, 5 mg/ml, Group 1 (single dose), topical 5 mg/ml, 8 hr post-last dose, OD, Mean, read-out: K173 Concentrations (ng/mL) in Rabbit Aqueous Humor OD Sample, Mean
- Method: Animals were not tranquilized for the examinations. The remaining ocular tissues were discarded. Ocular samples were stored −80° C. The rabbit efficacy model can be used to determine if QD or BID dosing is optimal for clinical utility.
Positions of bridges follow the written chain, without caps; N, C: chain ends. Non-standard residues stand in square brackets, D forms with d. Residues, ends and D or L forms follow the SMILES beside them. Triazole bridges read from a SMILES are 1,4-linked. *: point of attachment. Benzoyl(3,5-(OH)2) = O=C(c1cc(O)cc(O)c1)*; Lys(N3) = [N-]=[N+]=NCCCC[C@H](N)C(=O)O; dPhe(4-F) = N[C@H](Cc1ccc(F)cc1)C(=O)O; Nle = CCCC[C@H](N)C(=O)O; Pra = C#CC[C@H](N)C(=O)O
endpoint: level at 8 h (ng/mL)
Answers are plain numbers, in ng/mL.

q: Write down level at 8 h measured for item CCCC[C@H](NC(=O)c1cc(O)cc(O)c1)C(=O)N[C@H]1CCCCn2cc(nn2)C[C@@H](C(N)=O)NC(=O)[C@H](Cc2c[nH]c3ccccc23)NC(=O)[C@H](CCCNC(=N)N)NC(=O)[C@@H](Cc2ccc(F)cc2)NC(=O)[C@H](Cc2c[nH]cn2)NC1=O [KR-072] ({Benzoyl(3,5-(OH)2)}-[Nle][Lys(N3)]H[dPhe(4-F)]RW[Pra]-NH2; triazole 2-7)
a: 5.77

====

Hi there, I'd appreciate the recorded pIC50 for every entry that follows.
- assay.system: human recombinant MC3R (Homo sapiens)
- Sequence (P41968 whole entry): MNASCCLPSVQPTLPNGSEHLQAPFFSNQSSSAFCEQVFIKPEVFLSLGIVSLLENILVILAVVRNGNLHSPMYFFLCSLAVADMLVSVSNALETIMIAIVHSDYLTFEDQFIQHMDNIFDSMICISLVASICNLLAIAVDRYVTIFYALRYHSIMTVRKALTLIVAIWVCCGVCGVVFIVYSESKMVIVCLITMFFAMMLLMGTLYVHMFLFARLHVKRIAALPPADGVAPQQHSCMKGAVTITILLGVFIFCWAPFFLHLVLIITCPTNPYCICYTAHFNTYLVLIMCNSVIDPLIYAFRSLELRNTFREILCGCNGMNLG
- assay.details: Ca2+ signalling functional assay, MC3R stable cell line (CHO-K1/Gα15)
- conditions: calcium flux functional assay
pIC50: −log10 of the molar value. Positions of bridges follow the written chain, without caps; N, C: chain ends. Non-standard residues stand in square brackets, D forms with d. Residues, ends and D or L forms follow the SMILES beside them. Triazole bridges read from a SMILES are 1,4-linked. dPhe(4-CF3) = N[C@H](Cc1ccc(C(F)(F)F)cc1)C(=O)O; Lys(N3) = [N-]=[N+]=NCCCC[C@H](N)C(=O)O; Nle = CCCC[C@H](N)C(=O)O; Pra = C#CC[C@H](N)C(=O)O

Some solved entries appear below for comparison.
>>> measured("N=C(N)NCCC[C@@H]1NC(=O)[C@H](Cc2ccccc2)NC(=O)[C@H](Cc2c[nH]cn2)NC(=O)[C@H](CCC(=O)O)NC(=O)CSC[C@@H](C(N)=O)NC(=O)[C@H](Cc2c[nH]c3ccccc23)NC1=O [KR-011, Cyclo(-Ac-Glu-His-Phe-Arg-Trp-Cys)-NH2] ({CH2CO}-EHFRWC-NH2; thioether N-6 (inferred))")
"< 4.30"
>>> measured("CCCC[C@H](NC(C)=O)C(=O)N[C@H]1CCCCn2cc(nn2)C[C@@H](C(N)=O)NC(=O)[C@H](Cc2c[nH]c3ccccc23)NC(=O)[C@H](CCCNC(=N)N)NC(=O)[C@@H](Cc2ccc(C(F)(F)F)cc2)NC(=O)[C@H](Cc2c[nH]cn2)NC1=O [KR-048] (Ac-[Nle][Lys(N3)]H[dPhe(4-CF3)]RW[Pra]-NH2; triazole 2-7)")
"< 4.30"

# evaluate next
q: Write down pIC50 measured for item CCCC[C@H](NC(C)=O)C(=O)N1CCC(=O)NCCN(CC(=O)N[C@@H](Cc2c[nH]c3ccccc23)C(N)=O)C(=O)[C@H](CCCNC(=N)N)NC(=O)[C@@H](Cc2ccccc2)NC(=O)[C@H](Cc2c[nH]cn2)NC(=O)C1
a: < 4.30

====

- assay.details: In vivo topical administration pharmacokinetics of K173, rabbit (aqueous humor, cornea)
- conditions: aqueous humor, topical or ocular, 5 mg/ml, Group 2 (4 doses), topical 5 mg/ml, 2 hr post-last dose, OD, Mean, read-out: K173 Concentrations (ng/mL) in Rabbit Aqueous Humor OD Sample, Mean
Positions of bridges follow the written chain, without caps; N, C: chain ends. Non-standard residues stand in square brackets, D forms with d. Residues, ends and D or L forms follow the SMILES beside them. Triazole bridges read from a SMILES are 1,4-linked. *: point of attachment. Benzoyl(3,5-(OH)2) = O=C(c1cc(O)cc(O)c1)*; Lys(N3) = [N-]=[N+]=NCCCC[C@H](N)C(=O)O; dPhe(4-F) = N[C@H](Cc1ccc(F)cc1)C(=O)O; Nle = CCCC[C@H](N)C(=O)O; Pra = C#CC[C@H](N)C(=O)O
endpoint: level at 2 h (ng/mL)
Give bare numbers, in ng/mL.

q: Write down level at 2 h measured for item CCCC[C@H](NC(=O)c1cc(O)cc(O)c1)C(=O)N[C@H]1CCCCn2cc(nn2)C[C@@H](C(N)=O)NC(=O)[C@H](Cc2c[nH]c3ccccc23)NC(=O)[C@H](CCCNC(=N)N)NC(=O)[C@@H](Cc2ccc(F)cc2)NC(=O)[C@H](Cc2c[nH]cn2)NC1=O [KR-072] ({Benzoyl(3,5-(OH)2)}-[Nle][Lys(N3)]H[dPhe(4-F)]RW[Pra]-NH2; triazole 2-7)
a: 5.76

====

- assay.details: Thermodynamic solubility study in water
- Format: physicochemical
- conditions: Table 8; read-out: Solubility
Positions of bridges follow the written chain, without caps; N, C: chain ends. Non-standard residues stand in square brackets, D forms with d. Residues, ends and D or L forms follow the SMILES beside them. Triazole bridges read from a SMILES are 1,4-linked. *: point of attachment. Benzoyl(3,5-(OH)2) = O=C(c1cc(O)cc(O)c1)*; Lys(N3) = [N-]=[N+]=NCCCC[C@H](N)C(=O)O; dPhe(4-F) = N[C@H](Cc1ccc(F)cc1)C(=O)O; Aad = N[C@@H](CCCC(=O)O)C(=O)O; Nle = CCCC[C@H](N)C(=O)O; Pra = C#CC[C@H](N)C(=O)O
Hi there, I'd appreciate the recorded solubility for every entry that follows.
Give bare numbers, in µg/mL.

>>> measured("CCCC[C@H](NC(=O)c1cc(O)cc(O)c1)C(=O)N[C@H]1CCCCn2cc(nn2)C[C@@H](C(=O)N[C@@H](CCCC(N)=O)C(N)=O)NC(=O)[C@H](Cc2c[nH]c3ccccc23)NC(=O)[C@H](CCCNC(=N)N)NC(=O)[C@@H](Cc2ccc(F)cc2)NC(=O)[C@H](Cc2c[nH]cn2)NC1=O [KR-071] ({Benzoyl(3,5-(OH)2)}-[Nle][Lys(N3)]H[dPhe(4-F)]RW[Pra][Aad](NH2)-NH2; triazole 2-7)")
6100
>>> measured("CCCC[C@H](NC(=O)c1cc(O)cc(O)c1)C(=O)N[C@H]1CCCCn2cc(nn2)C[C@@H](C(N)=O)NC(=O)[C@H](Cc2c[nH]c3ccccc23)NC(=O)[C@H](CCCNC(=N)N)NC(=O)[C@@H](Cc2ccc(F)cc2)NC(=O)[C@H](Cc2c[nH]cn2)NC1=O [KR-072] ({Benzoyl(3,5-(OH)2)}-[Nle][Lys(N3)]H[dPhe(4-F)]RW[Pra]-NH2; triazole 2-7)")
6470

# evaluate next
q: Write down solubility measured for item CCCC[C@H](NC(=O)c1cc(O)cc(O)c1)C(=O)N[C@H]1CCCCn2cc(nn2)C[C@@H](C(N)=O)NC(=O)[C@H](Cc2c[nH]c3ccccc23)NC(=O)[C@H](CCCNC(=N)N)NC(=O)[C@@H](Cc2ccccc2)NC(=O)[C@H](Cc2c[nH]cn2)NC1=O [KR-073] ({Benzoyl(3,5-(OH)2)}-[Nle][Lys(N3)]H[dF]RW[Pra]-NH2; triazole 2-7)
a: 7690
